Test: Negative chronotropic activity in neonatal Wistar rat Cardiomyocytes assessed as change in heart beating after 5 mins at 37 degC
Type: functional, cell-based
Settings: cardiac muscle cell
pEC50: −log10 of the molar value.

| smiles.text | pEC50 |
| --- | --- |
| CC[C@@H]1O[C@@H]1C/C=C\C/C=C\C/C=C\C/C=C\CCCC(=O)O | 9.00 |

###

Assay: Negative chronotropic activity in neonatal Wistar rat Cardiomyocytes assessed as change in heart beating at 30 nM and at 37 degC after 5 mins
Format: functional, Cardiac muscle cell
Short version: Activity at least -20 bpm is Yes, less is No.

| smiles.text | discrete.label |
| --- | --- |
| CNC(=O)C(=O)NC/C=C\CCCCCCCCCCCCC(=O)O | Yes |
| O=C(O)CCCCCCCCC/C=C\CCCC[C@@H]1O[C@@H]1CCO | Yes |
| CCNC(=O)NC/C=C\CCCCCCCCCCCCC(=O)O | Yes |
| CC[C@@H]1O[C@@H]1C/C=C\C/C=C\C/C=C\C/C=C\CCCC(=O)O | No |
| CC[C@H]1O[C@H]1C/C=C\C/C=C\C/C=C\C/C=C\CCCC(=O)O | Yes |
